Where do the numbers come from? From ChEMBL document CHEMBL1138567.

Test system: Salmonella enterica subsp. enterica serovar Typhi str. CT18
Assay: Antimicrobial activity against Salmonella typhi at 75 ug/ml after 24 hrs by agar diffusion method
Type: functional
Test context: read-out: IZ
Reported metric: zone of inhibition at 75 µg/mL
Don't forget the unit after the number, please.

Below, each entry is followed by its recorded zone of inhibition at 75 µg/mL result.
CN1C[C@@H](c2ccc(Br)cc2)[C@@]2(CCc3c([nH]c4ccccc34)C2=O)C12C(=O)c1ccccc1C2=O    18 mm
Cc1ccc([C@@H]2CN(C)[C@@]3(C(=O)Nc4ccccc43)[C@]23CCc2c([nH]c4ccccc24)C3=O)cc1    14 mm
CN1C[C@@H](c2ccc(Br)cc2)[C@@]2(CCc3c([nH]c4ccccc34)C2=O)[C@]12C(=O)c1cccc3cccc2c13    21 mm
CN1C[C@@H](c2ccccc2)[C@@]2(CCc3c([nH]c4ccccc34)C2=O)C12C(=O)c1ccccc1C2=O    14 mm

query: What value of zone of inhibition at 75 µg/mL has been recorded for this entry: "CN1C[C@@H](c2ccc([N+](=O)[O-])cc2)[C@@]2(CCc3c([nH]c4ccccc34)C2=O)[C@]12C(=O)c1cccc3cccc2c13"
result: 18 mm

query: Okay, and "Cc1ccc([C@@H]2CN(C)C3(C(=O)c4ccccc4C3=O)[C@]23CCc2c([nH]c4ccccc24)C3=O)cc1" ?
result: 14 mm

query: Next up: "Cc1ccc([C@@H]2CN(C)[C@@]3(C(=O)c4cccc5cccc3c45)[C@]23CCc2c([nH]c4ccccc24)C3=O)cc1"
result: 21 mm

query: Next molecule up: "CN1C[C@@H](c2ccc([N+](=O)[O-])cc2)[C@@]2(CCc3c([nH]c4ccccc34)C2=O)C12C(=O)c1ccccc1C2=O"
result: 13 mm

query: Now the molecule "CN1C[C@@H](c2ccc(Br)cc2)[C@@]2(CCc3c([nH]c4ccccc34)C2=O)[C@]12C(=O)Nc1ccccc12"
result: 13 mm

query: Can you handle "COc1ccc([C@@H]2CN(C)C3(C(=O)c4ccccc4C3=O)[C@]23CCc2c([nH]c4ccccc24)C3=O)cc1" next?
result: 16 mm

query: Same question, "CN1C[C@@H](c2ccccc2)[C@@]2(CCc3c([nH]c4ccccc34)C2=O)[C@]12C(=O)c1cccc3cccc2c13" this time
result: 20 mm

====

Tested on: Proteus mirabilis
Assay: Antimicrobial activity against Proteus mirabilis at 50 ug/ml after 24 hrs by agar diffusion method
Assay type: functional
Test context: read-out: IZ
Reported metric: zone of inhibition at 50 µg/mL (mm)
Express it in mm; write the number only.

Here's what some known entries look like.
CN1C[C@@H](c2ccc(Cl)cc2)[C@@]2(CCc3c([nH]c4ccccc34)C2=O)[C@]12C(=O)Nc1ccccc12    15
CN1C[C@@H](c2ccc(Br)cc2)[C@@]2(CCc3c([nH]c4ccccc34)C2=O)[C@]12C(=O)Nc1ccccc12    14
CN1C[C@@H](c2ccc(Br)cc2)[C@@]2(CCc3c([nH]c4ccccc34)C2=O)[C@]12C(=O)c1cccc3cccc2c13    15
CN1C[C@@H](c2ccc([N+](=O)[O-])cc2)[C@@]2(CCc3c([nH]c4ccccc34)C2=O)[C@]12C(=O)c1cccc3cccc2c13    13
CN(C)[C@@H]1C(O)=C(C(N)=O)C(=O)[C@@]2(O)C(O)=C3C(=O)c4c(O)cccc4[C@@](C)(O)[C@H]3C[C@@H]12 [TETRACYCLINE]    24

query: What does the record list as zone of inhibition at 50 µg/mL for "COc1ccc([C@@H]2CN(C)[C@@]3(C(=O)Nc4ccccc43)[C@]23CCc2c([nH]c4ccccc24)C3=O)cc1" ?
result: 13

query: Entry to check: "CN1C[C@@H](c2ccccc2)[C@@]2(CCc3c([nH]c4ccccc34)C2=O)[C@]12C(=O)c1cccc3cccc2c13"
result: 13

====

The following compounds are shown together with reported zone of inhibition at 25 µg/mL values.
System: Proteus mirabilis
Assay: Antimicrobial activity against Proteus mirabilis at 25 ug/ml after 24 hrs by agar diffusion method
Type: functional
Test context: read-out: IZ
Report field: quantity (unit follows the number).

CN1C[C@@H](c2ccc(Cl)cc2)[C@@]2(CCc3c([nH]c4ccccc34)C2=O)[C@]12C(=O)Nc1ccccc12    13 mm
CN1C[C@@H](c2ccc([N+](=O)[O-])cc2)[C@@]2(CCc3c([nH]c4ccccc34)C2=O)C12C(=O)c1ccccc1C2=O    9 mm

query: Query (compound): "Cc1ccc([C@@H]2CN(C)C3(C(=O)c4ccccc4C3=O)[C@]23CCc2c([nH]c4ccccc24)C3=O)cc1" ; field requested: zone of inhibition at 25 µg/mL
result: 9 mm

====

Tested on: Salmonella enterica subsp. enterica serovar Typhi str. CT18
Assay: Antimicrobial activity against Salmonella typhi at 100 ug/ml after 24 hrs by agar diffusion method
Assay type: functional
Test context: read-out: IZ
Entries and their zone of inhibition at 100 µg/mL
Write the value in mm as a bare number.

query: Requested field: zone of inhibition at 100 µg/mL. Item: "CN1C[C@@H](c2ccccc2)[C@@]2(CCc3c([nH]c4ccccc34)C2=O)[C@]12C(=O)Nc1ccccc12"
result: 18

query: Entry to check: "CN1C[C@@H](c2ccc(Cl)cc2)[C@@]2(CCc3c([nH]c4ccccc34)C2=O)[C@]12C(=O)c1cccc3cccc2c13"
result: 31

query: Moving on to the next molecule: "CN1C[C@@H](c2ccc(Cl)cc2)[C@@]2(CCc3c([nH]c4ccccc34)C2=O)C12C(=O)c1ccccc1C2=O"
result: 19

query: "CN1C[C@@H](c2ccccc2)[C@@]2(CCc3c([nH]c4ccccc34)C2=O)C12C(=O)c1ccccc1C2=O" ?
result: 18

query: Another molecule to look at: "CN1C[C@@H](c2ccccc2)[C@@]2(CCc3c([nH]c4ccccc34)C2=O)[C@]12C(=O)c1cccc3cccc2c13"
result: 28

====

Tested on: Salmonella enterica subsp. enterica serovar Typhi str. CT18
Assay: Antimicrobial activity against Salmonella typhi at 100 ug/ml after 24 hrs by agar diffusion method
Assay type: functional
Test context: read-out: IZ
Kind request: treat 20 mm as inclusive, so zone of inhibition at 100 µg/mL at 20 mm or higher is Fulfilled, anything lower is Not fulfilled.

CN1C[C@@H](c2ccc(Cl)cc2)[C@@]2(CCc3c([nH]c4ccccc34)C2=O)[C@]12C(=O)Nc1ccccc12    Not fulfilled
Cc1ccc([C@@H]2CN(C)[C@@]3(C(=O)c4cccc5cccc3c45)[C@]23CCc2c([nH]c4ccccc24)C3=O)cc1    Fulfilled
COc1ccc([C@@H]2CN(C)[C@@]3(C(=O)c4cccc5cccc3c45)[C@]23CCc2c([nH]c4ccccc24)C3=O)cc1    Fulfilled
CN1C[C@@H](c2ccc([N+](=O)[O-])cc2)[C@@]2(CCc3c([nH]c4ccccc34)C2=O)C12C(=O)c1ccccc1C2=O    Not fulfilled
CN(C)[C@@H]1C(O)=C(C(N)=O)C(=O)[C@@]2(O)C(O)=C3C(=O)c4c(O)cccc4[C@@](C)(O)[C@H]3C[C@@H]12    Fulfilled
CN1C[C@@H](c2ccc(Br)cc2)[C@@]2(CCc3c([nH]c4ccccc34)C2=O)C12C(=O)c1ccccc1C2=O    Not fulfilled

Alright, here's another molecule for you.
query: Confirm if zone of inhibition at 100 µg/mL reported for the molecule "Cc1ccc([C@@H]2CN(C)C3(C(=O)c4ccccc4C3=O)[C@]23CCc2c([nH]c4ccccc24)C3=O)cc1" is 20 mm or above.
result: Not fulfilled

====

# zone of inhibition at 50 µg/mL values compiled below
System: Proteus mirabilis
Assay: Antimicrobial activity against Proteus mirabilis at 50 ug/ml after 24 hrs by agar diffusion method
Format: functional
Test context: read-out: IZ
Response body: numeric value in mm, unit text excluded.

For orientation, consider the following solved cases.
CN1C[C@@H](c2ccc(Cl)cc2)[C@@]2(CCc3c([nH]c4ccccc34)C2=O)[C@]12C(=O)c1cccc3cccc2c13    16
CN1C[C@@H](c2ccc([N+](=O)[O-])cc2)[C@@]2(CCc3c([nH]c4ccccc34)C2=O)C12C(=O)c1ccccc1C2=O    13
CN1C[C@@H](c2ccc(Br)cc2)[C@@]2(CCc3c([nH]c4ccccc34)C2=O)C12C(=O)c1ccccc1C2=O    11
CN1C[C@@H](c2ccc([N+](=O)[O-])cc2)[C@@]2(CCc3c([nH]c4ccccc34)C2=O)[C@]12C(=O)Nc1ccccc12    13

query: Please report the recorded zone of inhibition at 50 µg/mL for "Cc1ccc([C@@H]2CN(C)C3(C(=O)c4ccccc4C3=O)[C@]23CCc2c([nH]c4ccccc24)C3=O)cc1" .
result: 11

query: Try this molecule too: "CN1C[C@@H](c2ccccc2)[C@@]2(CCc3c([nH]c4ccccc34)C2=O)C12C(=O)c1ccccc1C2=O"
result: 9

query: Follow-up item: "Cc1ccc([C@@H]2CN(C)[C@@]3(C(=O)c4cccc5cccc3c45)[C@]23CCc2c([nH]c4ccccc24)C3=O)cc1"
result: 14

query: Likewise for "Cc1ccc([C@@H]2CN(C)[C@@]3(C(=O)Nc4ccccc43)[C@]23CCc2c([nH]c4ccccc24)C3=O)cc1" ?
result: 14

query: Lookup "COc1ccc([C@@H]2CN(C)C3(C(=O)c4ccccc4C3=O)[C@]23CCc2c([nH]c4ccccc24)C3=O)cc1"
result: 15

query: Queued: "CN1C[C@@H](c2ccccc2)[C@@]2(CCc3c([nH]c4ccccc34)C2=O)[C@]12C(=O)Nc1ccccc12"
result: 12

query: Again, but for "COc1ccc([C@@H]2CN(C)[C@@]3(C(=O)c4cccc5cccc3c45)[C@]23CCc2c([nH]c4ccccc24)C3=O)cc1"
result: 16

query: Query "CN1C[C@@H](c2ccc(Cl)cc2)[C@@]2(CCc3c([nH]c4ccccc34)C2=O)C12C(=O)c1ccccc1C2=O" next
result: 9
